// reported log10 of IC50 per item
Target of assay: bovine cerebral TPK1 (Bos taurus)
Method: Inhibitory activity against P-GS1 phosphorylation by bovine cerebral TPK1
Type: biochemical
Experimental conditions: P-GS1 phosphorylation, 41.7 μM [γ-32P] ATP, 25° C., 2 hours; read-out: IC50
Reported metric: log10 of IC50 (log10 of the value in nM)

{"Molecule": "CN1CCN(c2ccc(N3CCC(Oc4nc(-c5ccncn5)cc(=O)n4C)CC3)cc2)CC1", "Recorded number": 1.25}
{"Molecule": "Cn1c(O[C@H]2CC[C@H](c3ccc(CO)cc3)CC2)nc(-c2ccncn2)cc1=O", "Recorded number": 2.06}
{"Molecule": "CCC1CCCCC1Oc1nc(-c2ccncn2)cc(=O)n1C (stereo not drawn)", "Recorded number": 2.98}
{"Molecule": "Cn1c(OCC2CCN(c3ccc(CN4CCCCC4)cc3)CC2)nc(-c2ccncn2)cc1=O", "Recorded number": 1.62}
{"Molecule": "Cn1c(OC2CCN(c3ccccc3CN3CCCCC3)CC2)nc(-c2ccncn2)cc1=O", "Recorded number": 1.71}
{"Molecule": "Cn1c(OC2CCCN(c3ccccc3F)C2)nc(-c2ccncn2)cc1=O (stereo not drawn)", "Recorded number": 1.69}
{"Molecule": "Cn1c(OCCNc2ccccc2)nc(-c2ccncc2)cc1=O", "Recorded number": 2.00}
{"Molecule": "Cn1c(OC2CCN(c3ccc4c(c3)CN(Cc3ccccc3)C4)CC2)nc(-c2ccncn2)cc1=O", "Recorded number": 1.20}
{"Molecule": "Cn1c(OC[C@@H]2CCN(c3ccccc3)C2)nc(-c2ccncc2F)cc1=O", "Recorded number": 2.82}

---

Target of assay: bovine cerebral TPK1 (Bos taurus, UniProt A0A059UE90)
Sequence (A0A059UE90 1-419): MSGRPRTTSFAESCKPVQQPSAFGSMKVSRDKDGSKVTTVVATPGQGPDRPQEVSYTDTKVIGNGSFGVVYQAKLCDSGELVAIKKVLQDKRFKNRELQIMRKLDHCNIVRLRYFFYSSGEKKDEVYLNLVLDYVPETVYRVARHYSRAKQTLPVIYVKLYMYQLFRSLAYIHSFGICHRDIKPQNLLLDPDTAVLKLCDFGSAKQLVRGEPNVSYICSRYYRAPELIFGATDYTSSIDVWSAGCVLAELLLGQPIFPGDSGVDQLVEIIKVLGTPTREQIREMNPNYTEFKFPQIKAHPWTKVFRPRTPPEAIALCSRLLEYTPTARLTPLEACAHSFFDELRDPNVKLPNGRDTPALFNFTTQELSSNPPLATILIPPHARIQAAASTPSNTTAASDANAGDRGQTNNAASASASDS
Method: Inhibitory activity against P-GS1 phosphorylation by bovine cerebral TPK1
Format: biochemical
Experimental conditions: P-GS1 phosphorylation, 41.7 μM [γ-32P] ATP, 25° C., 2 hours; read-out: IC50
pIC50: −log10 of the molar value.

{"Compound": "CCN(CCOc1nc(-c2ccncc2F)cc(=O)n1C)c1cccc(C)c1", "pIC50": 7.17}
{"Compound": "Cn1c(OC[C@H]2CCN(c3ccsc3)C2)nc(-c2ccncc2F)cc1=O", "pIC50": 7.14}
{"Compound": "Cn1c(OC2CCCN(c3ccccn3)C2)nc(-c2ccncn2)cc1=O (centres unmarked)", "pIC50": 7.93}
{"Compound": "CN(C)Cc1ccc(C(=O)N2CCC(Oc3nc(-c4ccncn4)cc(=O)n3C)CC2)cc1", "pIC50": 7.40}
{"Compound": "Cn1c(OCC(OC2CCCCO2)c2ccccc2)nc(-c2ccncn2)cc1=O (centres unmarked)", "pIC50": 6.46}

---

Target of assay: bovine cerebral TPK1 (Bos taurus, UniProt A0A059UE90)
Method: Inhibitory activity against P-GS1 phosphorylation by bovine cerebral TPK1
Type: biochemical
Experimental conditions: P-GS1 phosphorylation, 41.7 μM [γ-32P] ATP, 25° C., 2 hours; read-out: IC50
pIC50: −log10 of the molar value.
// reported pIC50 per item

{"Compound": "CCN(CCOc1nc(-c2ccncn2)cc(=O)n1C)c1cccc(C)c1", "pIC50": 6.37}
{"Compound": "Cn1c(OC2CCN(c3ccc(CN4CCCCC4)cc3)C2)nc(-c2ccncn2)cc1=O (centres unmarked)", "pIC50": 7.89}
{"Compound": "Cn1c(OC2CCN(c3ccc(CN4CCCCC4)cc3)CC2)nc(-c2ccncn2)cc1=O", "pIC50": 7.79}
{"Compound": "CN1CCN(Cc2ccccc2N2CCC(Oc3nc(-c4ccncn4)cc(=O)n3C)CC2)CC1", "pIC50": 7.83}
{"Compound": "Cn1c(OCCSc2ccccc2)nc(-c2ccncc2)cc1=O", "pIC50": 7.26}
{"Compound": "Cn1c(OC2CCN(CCC3CCN(Cc4ccccc4)CC3)CC2)nc(-c2ccncn2)cc1=O", "pIC50": 7.47}
{"Compound": "CN1CCN(Cc2ccc(N3CCC(Oc4nc(-c5ccncn5)cc(=O)n4C)CC3)cc2)CC1", "pIC50": 8.19}
{"Compound": "CC(=O)N1CCN(Cc2ccc(N3CCC(Oc4nc(-c5ccncn5)cc(=O)n4C)CC3)cc2)CC1", "pIC50": 7.19}
